Test system: Escherichia coli
TEST DESCRIPTION: Antimicrobial activity against Escherichia coli ATCC 25922 assessed as inhibition of bacterial biofilm after 18 hrs by broth microdilution method
Type: functional
READOUT KIND: MBIC

CCOc1cc(/C=C2\SC(=S)N(c3ccc(F)cc3)C2=O)ccc1O | >=100 uM
CCOc1cc(/C=C2\SC(=S)N(c3cccc(F)c3)C2=O)ccc1O | >=100 uM
CCOc1cc(/C=C2\SC(=S)N(c3cccnc3)C2=O)ccc1O | >=100 uM
C=CCOc1cc(/C=C2\SC(=S)N(c3ccc(F)cc3)C2=O)ccc1O | >=100 uM

###

System: Enterococcus faecium
TEST DESCRIPTION: Antimicrobial activity against vancomycin-resistant Enterococcus faecium isolate EF1509 assessed as inhibition of bacterial biofilm after 18 hrs by broth microdilution method
Format: functional
Attribute: MBIC
Please reply with the bare figure in µM and do not write the unit itself.

C=CCOc1cc(/C=C2\SC(=S)N(c3ccc(F)cc3)C2=O)ccc1O | 59.5

Pending molecule:
Task item: I would be grateful if you could share the reported MBIC for CCOc1cc(/C=C2\SC(=S)N(c3cccnc3)C2=O)ccc1O .
Reply: 21

Value source: ChEMBL document CHEMBL1649230
